The reported measurements were obtained from PubChem BioAssay AID492978.

Biological target: Aminopeptidase N (Plasmodium falciparum (isolate 3D7))
Assay: recombinant PfM1AAP inhibitors, late-stage follow-up, biochemical, fluorescence, recombinant enzyme, assay provider (AID 492978)
Conditions: H-Leu-NHMec fluorescence, at 5 µM, stronger effect = higher value
Hi there, I'd appreciate the recorded inhibition for every entry that follows.
Use % as the unit, but write only the number.

Task: Item O=C(NCc1ccco1)C1CCCN(S(=O)(=O)c2cccc3nonc23)C1 (stereo not drawn) has what recorded inhibition?
Result: 17

Task: Query COc1ccccc1-c1nc2ccccc2c(=O)n1NC(=O)c1cccs1 next
Result: 38

Task: Query O=C(O)CCC(=O)N1N=C(c2c(-c3ccccc3)c3cc(Cl)ccc3[nH]c2=O)CC1c1cccs1 (stereo not drawn) next
Result: 13

----------
Biological target: Aminopeptidase N (Plasmodium falciparum (isolate 3D7)) (UniProt O96935)
Sequence (O96935 whole entry, looked up): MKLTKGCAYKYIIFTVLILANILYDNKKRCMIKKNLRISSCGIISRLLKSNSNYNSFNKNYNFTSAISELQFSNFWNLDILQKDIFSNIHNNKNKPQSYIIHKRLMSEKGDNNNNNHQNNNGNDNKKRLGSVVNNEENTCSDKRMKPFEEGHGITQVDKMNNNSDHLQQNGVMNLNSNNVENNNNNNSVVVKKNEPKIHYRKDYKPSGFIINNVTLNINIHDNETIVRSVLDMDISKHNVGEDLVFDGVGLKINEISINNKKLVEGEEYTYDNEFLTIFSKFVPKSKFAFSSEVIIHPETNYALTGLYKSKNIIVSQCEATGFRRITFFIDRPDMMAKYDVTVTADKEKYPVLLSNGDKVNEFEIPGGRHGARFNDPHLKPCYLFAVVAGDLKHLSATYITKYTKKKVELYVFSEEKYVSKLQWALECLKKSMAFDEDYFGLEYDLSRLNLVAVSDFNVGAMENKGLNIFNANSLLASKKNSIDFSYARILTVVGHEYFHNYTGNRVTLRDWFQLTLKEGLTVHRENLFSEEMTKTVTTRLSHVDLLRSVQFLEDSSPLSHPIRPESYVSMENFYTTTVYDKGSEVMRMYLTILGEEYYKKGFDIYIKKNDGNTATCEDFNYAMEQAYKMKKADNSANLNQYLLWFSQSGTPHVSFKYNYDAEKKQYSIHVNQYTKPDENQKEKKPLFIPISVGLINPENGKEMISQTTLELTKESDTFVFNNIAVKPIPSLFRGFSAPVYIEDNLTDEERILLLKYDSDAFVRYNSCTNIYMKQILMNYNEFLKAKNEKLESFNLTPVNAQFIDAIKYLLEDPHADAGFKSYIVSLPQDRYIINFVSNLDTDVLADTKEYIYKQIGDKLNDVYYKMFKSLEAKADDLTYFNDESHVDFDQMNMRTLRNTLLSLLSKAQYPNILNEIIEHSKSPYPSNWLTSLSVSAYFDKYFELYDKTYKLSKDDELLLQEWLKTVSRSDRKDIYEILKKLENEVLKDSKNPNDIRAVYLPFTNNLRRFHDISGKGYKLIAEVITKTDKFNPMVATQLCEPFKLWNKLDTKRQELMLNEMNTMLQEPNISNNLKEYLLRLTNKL
Experiment: recombinant PfM1AAP inhibitors, late-stage follow-up, biochemical, fluorescence, recombinant enzyme, assay provider (AID 492978)
Conditions: H-Leu-NHMec fluorescence, at 5 µM
The source made the active and inactive calls.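 Rule for the calls: active = inhibition of the malaria parasite aminopeptidase at 45% or more; inactive = inhibition below 45%.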
The reply should name one outcome from YES for active, NO for inactive

Task: // outcome(item) with item = CC(=O)N1N=C(c2c(O)n(C)c(=O)n(C)c2=O)CC1c1ccccc1 (stereo not given)
Result: NO

Task: Query O=C(Nn1c(C2CCC2)nc2ccccc2c1=O)c1cccs1 next
Result: NO

Task: Query O=C1N=c2ccccc2=C1c1sc(=S)n(NC(=O)c2ccccc2)c1O next
Result: NO

Task: Query O=C(NCc1cccc(F)c1)C1CCN(S(=O)(=O)Cc2ccccc2)CC1 next
Result: YES

Task: Query O=C(NCCC1=CCCCC1)C1CCN(S(=O)(=O)c2ccc(Br)s2)CC1 next
Result: YES

Task: Query COc1ccc(OC)c(/C=C2\SC(=S)N(C(C(=O)O)c3ccccc3)C2=O)c1 (stereo not given) next
Result: NO

Task: Query COc1ccc(C2CC(c3c(-c4ccccc4)c4cc(Cl)ccc4[nH]c3=O)=NN2C(=O)CCC(=O)O)cc1 (stereo not given) next
Result: NO

Task: Query O=C1/C(=C/c2cccs2)SC(=S)N1NS(=O)(=O)c1ccccc1 next
Result: NO

Task: Query O=C(O)CCC(=O)N1N=C(c2c(-c3ccccc3)c3cc(Cl)ccc3[nH]c2=O)CC1c1ccco1 (stereo not given) next
Result: NO

Task: Query O=C1N=c2ccccc2=C1c1sc(=S)n(NC(=O)c2cccc(O)c2)c1O next
Result: YES
